Tested on: HEL cells
Assay: alamarBlue cell viability assay, HEL
Format: cell-based, human
Details: 24 h treatment then alamarBlue 24 h
pIC50: −log10 of the molar value.
observed-property: pIC50

If you can, please state the reported pIC50 value of Cc1nc2sccn2c(=O)c1CCN1CCC(=C(c2ccc(F)cc2)c2ccc(F)cc2)CC1 [ritanserin] .
~4.31

###

Tested on: Peripheral blood lymphocytes (PBLs)
Experiment: alamarBlue cell viability assay, PBLs from healthy donors
Format: cell-based, human
Conditions: Homo sapiens, Lymphocyte; PBLs from healthy donors, 72 h
observed-property: IC50 (µM)
Express your answer in µM, writing the number without its unit.

# query: IC50 of entry Cc1nc2sccn2c(=O)c1CCN1CCC(=C(c2ccc(F)cc2)c2ccc(F)cc2)CC1
32.5
